Origin of measurements: ChEMBL document CHEMBL1821688

# Experimental system: Tyrosine-protein phosphatase non-receptor type 6 (Homo sapiens, UniProt P29350)
# Sequence (P29350 whole entry): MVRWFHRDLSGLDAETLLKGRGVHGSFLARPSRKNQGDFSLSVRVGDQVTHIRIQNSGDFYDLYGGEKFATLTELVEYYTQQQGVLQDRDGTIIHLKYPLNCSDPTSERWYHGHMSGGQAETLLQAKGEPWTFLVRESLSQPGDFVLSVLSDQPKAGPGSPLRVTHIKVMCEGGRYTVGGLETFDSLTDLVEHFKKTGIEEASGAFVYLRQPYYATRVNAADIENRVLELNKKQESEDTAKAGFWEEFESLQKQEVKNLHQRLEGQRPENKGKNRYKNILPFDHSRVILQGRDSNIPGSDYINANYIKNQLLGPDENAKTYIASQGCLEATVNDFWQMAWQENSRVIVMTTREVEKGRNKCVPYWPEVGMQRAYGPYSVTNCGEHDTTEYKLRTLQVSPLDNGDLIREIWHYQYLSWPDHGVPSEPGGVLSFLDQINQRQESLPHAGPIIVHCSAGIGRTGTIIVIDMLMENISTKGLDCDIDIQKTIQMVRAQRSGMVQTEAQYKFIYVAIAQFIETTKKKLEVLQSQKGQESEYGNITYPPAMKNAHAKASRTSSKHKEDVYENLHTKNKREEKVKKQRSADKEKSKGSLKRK
# Protocol notes: Inhibition of human recombinant SHP1 in Tris buffer at pH 8 using OMPF as substrate
Test readout: IC50 (µM)

| Molecule | IC50 [µM] |
| --- | --- |
| O=C(/C=C/c1ccc(Cl)c(Cl)c1)NC(Cc1ccc2cc(OCc3ccccc3F)ccc2c1)C(=O)O (racemic) | 10.7 |
| O=C(/C=C/c1ccc(F)cc1)NC(Cc1ccc2cc(OCc3ccccc3F)ccc2c1)C(=O)O (racemic) | 18.5 |
| O=C(/C=C/c1ccc(Br)cc1)NC(Cc1ccc2cc(OCc3ccccc3F)ccc2c1)C(=O)O (racemic) | 13 |
| O=C(/C=C/c1cccc(Cl)c1)NC(Cc1ccc2cc(OCc3ccccc3F)ccc2c1)C(=O)O (racemic) | 13.2 |
